These entries and their values trace back to paper PMC11017298.

- experimental_system: human 20S proteasome ChT-L activity (Homo sapiens)
- Construct: human RBC proteasome was purchased from South Bay Bio
- run_description: Fluorometric kinetic enzyme assay, 20S proteasome ChT-L activity (Suc-LLVY-AMC)
- condition_label: constitutive human 20S proteasome, Suc-LLVY-AMC, 37 C, 10 min
Consider the following compounds and their measured IC50 readings.
Express the result in nM but write the number alone.

Reference set, count: 5
compound: CC(=O)N[C@H]1Cc2ccc([N+](=O)[O-])c(c2)Oc2ccc3c(c2)C(C[C@@H](C(=O)N[C@@H](CC(C)C)C(N)=O)NC(=O)[C@H](CC(C)C)NC1=O)C(=O)N3 (stereo partly drawn)
IC50 [nM]: 25000

compound: CC(=O)N[C@H]1Cc2ccc([N+](=O)[O-])c(c2)Oc2ccc(cc2)C[C@@H](C(=O)N[C@@H](CC(C)C)C(=O)[C@@]2(C)CO2)NC(=O)[C@H](CC(C)C)NC1=O [15a]
IC50 [nM]: 550

compound: CC(=O)N[C@H]1Cc2ccc([N+](=O)[O-])c(c2)Oc2ccc(cc2)CC[C@@H](C(=O)N[C@@H](CC(C)C)C(=O)[C@@]2(C)CO2)NC(=O)[C@H](CC(C)C)NC1=O [15b]
IC50 [nM]: 2900

compound: CC(C)C[C@@H](C=O)NC(=O)[C@@H]1Cc2ccc(cc2)Oc2cc(ccc2[N+](=O)[O-])C[C@H](NC(=O)OCc2ccccc2)C(=O)N[C@@H](CC(C)C)C(=O)N1 [compound 16, reference compound]
IC50 [nM]: 240

compound: CC(=O)N[C@@H](Cc1ccc([N+](=O)[O-])c(F)c1)C(=O)N[C@@H](CC(C)C)C(=O)N[C@@H](CC1C(=O)Nc2ccc(O)cc21)C(=O)N[C@@H](CC(C)C)C(=O)[C@@]1(C)CO1 (stereo partly drawn)
IC50 [nM]: 1000

Now for the compound whose IC50 we want.
response.value for CC(=O)N[C@H]1Cc2ccc([N+](=O)[O-])c(c2)Oc2ccc3c(c2)C(C[C@@H](C(=O)N[C@@H](CC(C)C)C(=O)[C@@]2(C)CO2)NC(=O)[C@H](CC(C)C)NC1=O)C(=O)N3 (stereo partly drawn) (field: IC50) = 190

* * *

- experimental_system: m-calpain (Sus scrofa, UniProt P35750)
- Construct: erythrocytes calpain-1 were purchased from Millipore; purchased Millipore; host or cells: porcine erythrocytes
- Sequence (P35750 1-714): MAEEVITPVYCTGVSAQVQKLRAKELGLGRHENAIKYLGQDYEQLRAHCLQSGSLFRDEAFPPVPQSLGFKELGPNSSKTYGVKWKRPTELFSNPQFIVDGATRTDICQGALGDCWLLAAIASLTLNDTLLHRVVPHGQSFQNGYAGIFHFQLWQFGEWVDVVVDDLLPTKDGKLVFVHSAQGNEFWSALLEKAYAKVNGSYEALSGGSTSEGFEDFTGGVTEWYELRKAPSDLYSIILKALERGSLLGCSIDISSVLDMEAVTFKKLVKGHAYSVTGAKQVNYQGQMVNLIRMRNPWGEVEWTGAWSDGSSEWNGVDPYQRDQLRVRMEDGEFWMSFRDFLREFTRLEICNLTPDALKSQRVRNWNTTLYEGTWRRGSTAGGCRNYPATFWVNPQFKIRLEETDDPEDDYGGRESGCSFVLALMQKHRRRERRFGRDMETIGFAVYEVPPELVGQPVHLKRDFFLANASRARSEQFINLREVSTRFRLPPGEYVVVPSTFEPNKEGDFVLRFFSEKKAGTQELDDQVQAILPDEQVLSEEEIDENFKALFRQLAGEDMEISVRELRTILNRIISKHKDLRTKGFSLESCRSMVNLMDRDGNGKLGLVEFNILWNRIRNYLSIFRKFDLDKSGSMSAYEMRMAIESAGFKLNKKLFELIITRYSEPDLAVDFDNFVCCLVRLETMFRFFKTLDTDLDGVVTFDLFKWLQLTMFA
- Sequence (P04574 1-266 partner): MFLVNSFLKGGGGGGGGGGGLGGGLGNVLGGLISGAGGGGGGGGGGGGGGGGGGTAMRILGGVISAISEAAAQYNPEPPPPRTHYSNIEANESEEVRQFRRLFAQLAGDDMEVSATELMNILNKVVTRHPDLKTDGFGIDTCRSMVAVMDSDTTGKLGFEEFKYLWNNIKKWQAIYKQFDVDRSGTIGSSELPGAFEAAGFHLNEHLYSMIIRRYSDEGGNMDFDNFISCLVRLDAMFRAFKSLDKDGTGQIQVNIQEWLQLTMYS
- run_description: Fluorometric kinetic enzyme assay, m-calpain (Suc-LLVY-AMC)
- Assay type: biochemical
measured_property: IC50

response.value for CC(=O)N[C@@H](Cc1ccc([N+](=O)[O-])c(F)c1)C(=O)N[C@@H](CC(C)C)C(=O)N[C@@H](CC1C(=O)Nc2ccc(O)cc21)C(=O)N[C@@H](CC(C)C)C(=O)[C@@]1(C)CO1 (stereo partly shown) [compound 6] (field: IC50) = > 130 µM

* * *

- experimental_system: chymotrypsin (Bos taurus, UniProt P00766)
- Construct: chymotrypsin was purchased from Sigma Aldrich; purchased Sigma Aldrich; host or cells: bovine pancreas
- run_description: Fluorometric kinetic enzyme assay, chymotrypsin (Suc-LLVY-AMC)
- Assay type: biochemical
pIC50: −log10 of the molar value.
measured_property: pIC50

response.value for CC(=O)N[C@@H](Cc1ccc([N+](=O)[O-])c(F)c1)C(=O)N[C@@H](CC(C)C)C(=O)N[C@@H](CC1C(=O)Nc2ccc(O)cc21)C(=O)N[C@@H](CC(C)C)C(=O)[C@@]1(C)CO1 (stereo partly shown) [compound 6] (field: pIC50) = < 3.89

* * *

Consider the following molecules and their measured IC50 readings.
- experimental_system: human 20S proteasome PGPH-L activity (Homo sapiens, UniProt P28072)
- Construct: human RBC proteasome was purchased from South Bay Bio; purchased South Bay Bio; host or cells: human red blood cells
- run_description: Fluorometric kinetic enzyme assay, 20S proteasome PGPH-L activity (Cbz-LLE-AMC)
- Format: biochemical
- condition_label: human 20S proteasome, Cbz-LLE-AMC; N.I. = no inhibition at 130 μM; read-out: IC50 20S Proteasome PGPH-L Activity
Express the result in µM but write the number alone.

response.value for CC(=O)N[C@H]1Cc2ccc([N+](=O)[O-])c(c2)Oc2ccc3c(c2)C(C[C@@H](C(=O)N[C@@H](CC(C)C)C(=O)[C@@]2(C)CO2)NC(=O)[C@H](CC(C)C)NC1=O)C(=O)N3 (some centres unmarked) (field: IC50) = 52.5

response.value for CC(C)C[C@@H](C=O)NC(=O)[C@@H]1Cc2ccc(cc2)Oc2cc(ccc2[N+](=O)[O-])C[C@H](NC(=O)OCc2ccccc2)C(=O)N[C@@H](CC(C)C)C(=O)N1 [compound 16, reference compound] (field: IC50) = 7.51

* * *

- experimental_system: human 20S proteasome PGPH-L activity (Homo sapiens, UniProt P28072)
- Construct: human RBC proteasome was purchased from South Bay Bio; purchased South Bay Bio; host or cells: human red blood cells
- run_description: Fluorometric kinetic enzyme assay, 20S proteasome PGPH-L activity (Cbz-LLE-AMC)
- Type: biochemical
- condition_label: human 20S proteasome, Cbz-LLE-AMC; N.I. = no inhibition at 130 μM; read-out: IC50 20S Proteasome PGPH-L Activity
Consider the following compounds and their measured IC50 readings.

compound: CC(=O)N[C@H]1Cc2ccc([N+](=O)[O-])c(c2)Oc2ccc(cc2)CC[C@@H](C(=O)N[C@@H](CC(C)C)C(=O)[C@@]2(C)CO2)NC(=O)[C@H](CC(C)C)NC1=O [15b]
measured_property: IC50
result: > 130 µM

response.value for CC(=O)N[C@H]1Cc2ccc([N+](=O)[O-])c(c2)Oc2ccc3c(c2)C(C[C@@H](C(=O)N[C@@H](CC(C)C)C(N)=O)NC(=O)[C@H](CC(C)C)NC1=O)C(=O)N3 (stereo partly drawn) (field: IC50) = > 130 µM

response.value for CC(=O)N[C@H]1Cc2ccc([N+](=O)[O-])c(c2)Oc2ccc(cc2)C[C@@H](C(=O)N[C@@H](CC(C)C)C(=O)[C@@]2(C)CO2)NC(=O)[C@H](CC(C)C)NC1=O [15a] (field: IC50) = > 130 µM
